Assay: Solubility measurement by dissolution apparatus, Ponesimod content by liquid chromatography
Assay type: physicochemical
Conditions: pH 1.2 buffer (USP), 37 °C, pH 1.2, simulated gastric fluid, thermodynamic from solid, pH 1.2 buffer, 60 Min
measure.name: solubility at 60 min
Entry format: amount then unit.

Return reported solubility at 60 min. Input compound: CCC/N=C1\S/C(=C\c2ccc(OC[C@H](O)CO)c(Cl)c2)C(=O)N1c1ccccc1C [Form A] 120 µg/mL

---

Test: Solubility measurement by dissolution apparatus, Ponesimod content by liquid chromatography
Type: physicochemical
Conditions: pH 1.2 buffer (USP), 37 °C, pH 1.2, simulated gastric fluid, thermodynamic from solid, pH 1.2 buffer, 45 Min
measure.name: solubility at 45 min

Return reported solubility at 45 min. Input molecule: CCC/N=C1\S/C(=C\c2ccc(OC[C@H](O)CO)c(Cl)c2)C(=O)N1c1ccccc1C [Form A] 120 µg/mL
